Test system: PPARg:RXRa DBDmut IVT, anti-RXR (DBD mutation: RXRa K156A/R161A, NR concentration 270 nM, RXRa partner concentration 90 nM)
Assay: PBM binding z-score (relative to random genomic background probes); higher = stronger binding; sequences stand for … in GC…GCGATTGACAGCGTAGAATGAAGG
reported-property: PBM binding z-score
Number only, no unit.

macromolecule-sequence	PBM binding z-score
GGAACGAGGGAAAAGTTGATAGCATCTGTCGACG	-0.174
TCCAGCAGGCCAGAGGGTCACTCAAGAGGTACGG	0.933
GGAACGAGGGCATTTGAGTTGATAGCATGGCGAT	2.97
GCGACTGGGGCAAAGCAGGTAACCATAAGGTTGG	4.21
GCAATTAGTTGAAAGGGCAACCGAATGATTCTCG	0.317
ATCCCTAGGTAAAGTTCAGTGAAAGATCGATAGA	0.383
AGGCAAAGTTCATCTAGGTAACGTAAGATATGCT	1.08
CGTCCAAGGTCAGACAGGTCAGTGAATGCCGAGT	2.43
ATCTCTAGGTAAGGATAGTTCAGTGAATGCAAAT	1.23
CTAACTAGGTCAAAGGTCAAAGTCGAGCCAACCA	9.01

Query block: Given the sequence `CCGAGTAGTTTATGGGGCATTCAGGCAACGGTGA` , what is its reported PBM binding z-score?
Result block: 1.6

Query block: Given the sequence `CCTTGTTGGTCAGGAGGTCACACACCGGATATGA` , what is its reported PBM binding z-score?
Result block: 1.61

Query block: Given the sequence `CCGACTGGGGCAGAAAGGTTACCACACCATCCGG` , what is its reported PBM binding z-score?
Result block: 1.83

Query block: Given the sequence `CCTGCTAGGTCATGGTGAGCTAATCTACAGTATG` , what is its reported PBM binding z-score?
Result block: 4.15

Query block: Given the sequence `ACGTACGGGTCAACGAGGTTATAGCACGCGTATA` , what is its reported PBM binding z-score?
Result block: 1.33

Query block: Given the sequence `CCGACTGGGGCAAGGATACCATAACGCACAGCCA` , what is its reported PBM binding z-score?
Result block: 2.53

Query block: Given the sequence `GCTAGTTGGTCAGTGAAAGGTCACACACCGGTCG` , what is its reported PBM binding z-score?
Result block: 1.21

Query block: Given the sequence `ACTCGGAGGACAAAGGTCAGAGCAACGCCAGTGA` , what is its reported PBM binding z-score?
Result block: 0.873

###

PBM binding z-score values, listed per item
Test system: PPARg:RXRa 90nM:30nM, anti-RXR (NR concentration 90 nM, RXRa partner concentration 30 nM)
Assay: PBM binding z-score (relative to random genomic background probes); higher = stronger binding; sequences stand for … in GC…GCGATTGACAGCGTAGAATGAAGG

Solved cases (4 shown):
macromolecule-sequence	target-or-system	reported-property	experimental-result
CGAACGCGGGCATGAGTTGATAGCAAATGCCGAT	PPARg:RXRa 90nM:30nM, anti-RXR (NR concentration 90 nM, RXRa partner concentration 30 nM)	PBM binding z-score	-0.633
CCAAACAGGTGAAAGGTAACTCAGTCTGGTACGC	PPARg:RXRa 90nM:30nM, anti-RXR (NR concentration 90 nM, RXRa partner concentration 30 nM)	PBM binding z-score	8.18
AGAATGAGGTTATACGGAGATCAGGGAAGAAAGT	PPARg:RXRa 90nM:30nM, anti-RXR (NR concentration 90 nM, RXRa partner concentration 30 nM)	PBM binding z-score	1.45
ACAGGCAGGTGATGAAGGTAACTCAGGCTATCAT	PPARg:RXRa 90nM:30nM, anti-RXR (NR concentration 90 nM, RXRa partner concentration 30 nM)	PBM binding z-score	-0.0613

Query block: Given the sequence `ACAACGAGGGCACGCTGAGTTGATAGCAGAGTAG` , what is its reported PBM binding z-score?
Result block: 0.944
